Assay: in vivo
Details: male, C57BL/6J, mouse, po, 10 mg/kg
Metric Name: concentration at 4 h (nM)
Give just the number in nM; leave the unit off.

Prompt line: Which measured concentration at 4 h value corresponds to O=C(NC1CCCC1)C(=O)[C@H](C[C@@H]1CCNC1=O)NC(=O)[C@@H]1[C@H]2CCC[C@H]2CN1C(=O)[C@@H](NC(=O)C(F)(F)F)C1CCCCC1 [Compound 1] ?
Response line: 661

====

Each entry below lists one item and its recorded Vd value.
Assay: in vivo
Conditions: male, C57BL/6J, mouse, iv, 3 mg/kg
Provide the measurement as a number trailed by its unit.

Molecule	Vd
CC(C)(C)[C@H](NC(=O)C(F)(F)F)C(=O)N1C[C@H]2[C@@H]([C@H]1C(=O)N[C@H](C#N)CC1CCNC1=O)C2(C)C (some centres unmarked) [PF-07321332, reference compound]	0.456 L/kg

Prompt line: Which measured Vd value corresponds to O=C(NC1CCCC1)C(=O)[C@H](C[C@@H]1CCNC1=O)NC(=O)[C@@H]1[C@H]2CCC[C@H]2CN1C(=O)[C@@H](NC(=O)C(F)(F)F)C1CCCCC1 [Compound 1] ?
Response line: 1.38 L/kg

====

Assay: in vivo
Settings: male, C57BL/6J, mouse, po, 10 mg/kg
Each entry below lists one item and its recorded Tmax value.
Give just the number in h; leave the unit off.

Compound	Unit Info	Tmax
CC(C)(C)NC(=O)C(=O)[C@H](C[C@@H]1CCNC1=O)NC(=O)[C@@H]1[C@H]2CCC[C@H]2CN1C(=O)[C@@H](NC(=O)C(F)(F)F)C1CCCCC1	h	1.5

Prompt line: Which measured Tmax value corresponds to CC(C)(C)[C@H](NC(=O)C(F)(F)F)C(=O)N1C[C@H]2[C@@H]([C@H]1C(=O)N[C@H](C#N)CC1CCNC1=O)C2(C)C (stereo partly drawn) [PF-07321332, reference compound] ?
Response line: 0.292

Prompt line: Another compound to look at: "O=C(NC1CCCC1)C(=O)[C@H](C[C@@H]1CCNC1=O)NC(=O)[C@@H]1[C@H]2CCC[C@H]2CN1C(=O)[C@@H](NC(=O)C(F)(F)F)C1CCCCC1"
Response line: 2

====

Assay: in vivo
Conditions: male, C57BL/6J, mouse, iv, 3 mg/kg
Each entry below lists one item and its recorded clearance value.
Provide the measurement as a number trailed by its unit.

Compound	clearance
O=C(NC1CCCC1)C(=O)[C@H](C[C@@H]1CCNC1=O)NC(=O)[C@@H]1[C@H]2CCC[C@H]2CN1C(=O)[C@@H](NC(=O)C(F)(F)F)C1CCCCC1	10.1 mL/min/kg

Please turn your attention to the following entry.
Prompt line: Which measured clearance value corresponds to CC(C)(C)[C@H](NC(=O)C(F)(F)F)C(=O)N1C[C@H]2[C@@H]([C@H]1C(=O)N[C@H](C#N)CC1CCNC1=O)C2(C)C (some centres unmarked) [PF-07321332, reference compound] ?
Response line: 30.2 mL/min/kg

====

Assay: in vivo
Conditions: male, C57BL/6J, mouse, po, 10 mg/kg
Metric Name: concentration at 0.5 h
Provide the measurement as a number trailed by its unit.

Prompt line: Which measured concentration at 0.5 h value corresponds to "O=C(NC1CCCC1)C(=O)[C@H](C[C@@H]1CCNC1=O)NC(=O)[C@@H]1[C@H]2CCC[C@H]2CN1C(=O)[C@@H](NC(=O)C(F)(F)F)C1CCCCC1" ?
Response line: 706 nM
